Biological target: human fatty acid synthase FASN (Homo sapiens (Human))
Sequence (P49327 whole entry): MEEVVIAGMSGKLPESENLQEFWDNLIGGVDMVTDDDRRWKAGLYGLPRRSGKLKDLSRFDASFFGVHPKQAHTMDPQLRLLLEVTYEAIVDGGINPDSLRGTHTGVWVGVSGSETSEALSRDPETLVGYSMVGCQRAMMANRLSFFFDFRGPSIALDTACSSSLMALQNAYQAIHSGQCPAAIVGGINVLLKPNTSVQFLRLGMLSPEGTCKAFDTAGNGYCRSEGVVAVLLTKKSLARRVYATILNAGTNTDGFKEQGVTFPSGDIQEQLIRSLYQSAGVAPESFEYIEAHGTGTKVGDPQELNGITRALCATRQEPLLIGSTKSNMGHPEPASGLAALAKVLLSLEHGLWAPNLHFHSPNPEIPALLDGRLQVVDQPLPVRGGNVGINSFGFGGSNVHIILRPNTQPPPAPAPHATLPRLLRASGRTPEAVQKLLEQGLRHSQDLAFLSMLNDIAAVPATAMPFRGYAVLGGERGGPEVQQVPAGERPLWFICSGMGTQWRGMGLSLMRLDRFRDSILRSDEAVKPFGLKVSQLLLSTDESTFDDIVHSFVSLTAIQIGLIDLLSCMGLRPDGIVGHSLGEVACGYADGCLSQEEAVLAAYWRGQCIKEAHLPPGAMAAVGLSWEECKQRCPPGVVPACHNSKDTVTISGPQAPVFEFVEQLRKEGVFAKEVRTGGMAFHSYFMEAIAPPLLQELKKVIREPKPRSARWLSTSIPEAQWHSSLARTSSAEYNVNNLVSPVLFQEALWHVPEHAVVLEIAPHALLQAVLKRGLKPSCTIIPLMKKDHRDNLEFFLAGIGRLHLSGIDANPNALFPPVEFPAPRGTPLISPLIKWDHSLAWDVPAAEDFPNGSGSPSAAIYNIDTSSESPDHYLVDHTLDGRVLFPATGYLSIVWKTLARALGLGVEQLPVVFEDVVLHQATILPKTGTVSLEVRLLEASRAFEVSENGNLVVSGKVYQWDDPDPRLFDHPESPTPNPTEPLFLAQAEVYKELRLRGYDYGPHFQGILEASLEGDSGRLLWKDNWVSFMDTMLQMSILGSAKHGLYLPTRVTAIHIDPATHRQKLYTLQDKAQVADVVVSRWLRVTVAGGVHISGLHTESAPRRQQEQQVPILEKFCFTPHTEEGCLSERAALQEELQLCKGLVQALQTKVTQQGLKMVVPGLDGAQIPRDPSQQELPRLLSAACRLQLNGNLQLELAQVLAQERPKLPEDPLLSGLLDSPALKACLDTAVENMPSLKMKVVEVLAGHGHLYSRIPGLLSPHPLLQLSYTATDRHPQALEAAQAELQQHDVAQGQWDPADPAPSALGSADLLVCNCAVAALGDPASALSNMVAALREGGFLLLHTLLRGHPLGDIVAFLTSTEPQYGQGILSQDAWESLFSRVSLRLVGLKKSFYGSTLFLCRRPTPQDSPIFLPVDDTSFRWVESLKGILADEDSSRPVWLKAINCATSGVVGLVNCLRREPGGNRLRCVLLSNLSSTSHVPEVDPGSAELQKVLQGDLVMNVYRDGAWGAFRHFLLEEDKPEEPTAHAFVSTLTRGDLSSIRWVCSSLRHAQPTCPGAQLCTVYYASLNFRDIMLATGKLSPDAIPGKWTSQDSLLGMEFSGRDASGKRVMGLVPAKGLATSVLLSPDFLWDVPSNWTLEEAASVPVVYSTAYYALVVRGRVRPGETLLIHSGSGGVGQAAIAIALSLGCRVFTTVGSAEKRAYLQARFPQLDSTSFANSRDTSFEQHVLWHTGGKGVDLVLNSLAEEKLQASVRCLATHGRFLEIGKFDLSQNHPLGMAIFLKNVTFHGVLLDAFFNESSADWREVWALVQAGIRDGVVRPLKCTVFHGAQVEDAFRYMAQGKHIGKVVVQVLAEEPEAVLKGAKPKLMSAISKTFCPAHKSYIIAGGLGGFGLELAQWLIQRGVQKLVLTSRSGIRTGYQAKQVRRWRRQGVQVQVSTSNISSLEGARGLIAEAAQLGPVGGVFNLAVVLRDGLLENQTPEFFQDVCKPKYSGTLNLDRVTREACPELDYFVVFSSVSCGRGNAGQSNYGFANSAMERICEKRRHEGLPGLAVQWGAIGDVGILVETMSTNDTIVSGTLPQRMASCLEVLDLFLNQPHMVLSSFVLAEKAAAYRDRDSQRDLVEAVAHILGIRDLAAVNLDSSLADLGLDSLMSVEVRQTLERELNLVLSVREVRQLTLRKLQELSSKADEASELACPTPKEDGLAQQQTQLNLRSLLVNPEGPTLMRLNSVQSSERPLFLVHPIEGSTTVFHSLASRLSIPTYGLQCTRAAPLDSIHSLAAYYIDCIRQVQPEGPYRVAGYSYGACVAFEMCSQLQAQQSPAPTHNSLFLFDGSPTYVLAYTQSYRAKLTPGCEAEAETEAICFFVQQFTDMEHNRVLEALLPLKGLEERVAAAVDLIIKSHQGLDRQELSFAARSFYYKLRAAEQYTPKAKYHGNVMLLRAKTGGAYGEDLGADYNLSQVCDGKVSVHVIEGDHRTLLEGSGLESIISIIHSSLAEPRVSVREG
Test: Biochemical activity testing of human fatty acid synthase FASN (NADPH fluorescence intensity enzyme assay)
Conditions: human recombinant full-length fatty acid synthase
Description: Biochemical activity testing of human fatty acid synthase FASN Fatty acid synthase FASN is a multifunctional enzyme with seven catalytic activities thereby synthesising long chain fatty acids especially palmitoyl-CoA in the presence of co-factor NADPH starting from the substrates acetyl-CoA and malonyl-CoA. […] After this the fluorescence intensity was measured again in the Envision using the same parameters as described above (second time point measurement). […]
The entries below come with measured IC50 values attached.

Solved cases below.
| molecule | result |
| --- | --- |
| CCC(=O)N[C@H]1CC[C@@H](N(C)C(=O)c2ccc(-c3nc4ccccc4s3)cc2)C1 [Compound A6] | < 300 nM |
| CCC(=O)N[C@H]1CC[C@@H](N(C)C(=O)c2ccc(-c3ccc(OC(F)F)cc3)cc2)C1 [Compound A85] | < 300 nM |
| CC(=O)N[C@@H]1CC[C@@H](N(C)C(=O)c2ccc(-c3nc4ccccc4o3)cc2)C1 [Compound A166] | 3000 to 50000 nM |

Lab note: next molecule to report on.
Q. # lookup: IC50 of CCC(=O)N[C@H]1CC[C@@H](N(C)C(=O)c2ccc(-c3ccccc3)cc2)C1 [Compound A8]
A. < 300 nM

###

Target: UniProt:P49327
Test: Biochemical activity testing of human fatty acid synthase FASN (NADPH fluorescence intensity enzyme assay)
Conditions: human recombinant full-length fatty acid synthase
The entries below come with measured IC50 values attached.

Solved cases below.
| cpd smiles | study target | IC50 |
| --- | --- | --- |
| CCC(=O)N[C@H]1CC[C@@H](N(C)C(=O)c2ccc(-c3cc(F)c4[nH]ccc4c3)nc2)C1 | UniProt:P49327 | 300 to 3000 nM |
| CCC(F)(F)C(=O)N[C@H]1CC[C@@H](N(C)C(=O)c2ccc(-c3nc4ccccc4o3)cc2)C1 | UniProt:P49327 | < 300 nM |
| CCC(=O)N[C@H]1CC[C@@H](N(C)C(=O)c2ccc(-c3ccc(C(=O)OC)cc3F)cc2)C1 | UniProt:P49327 | < 300 nM |
| CC(=O)N[C@H]1CC[C@@H](N(C)C(=O)c2ccc(-c3nc4ccccc4o3)cc2)C1 | UniProt:P49327 | < 300 nM |

Q. # lookup: IC50 of `CCC(=O)N[C@H]1CC[C@@H](N(C)C(=O)c2ccc(-c3ccc(OC)cc3)cc2)C1`
A. < 300 nM

Q. Try `CCC(=O)N[C@H]1CC[C@@H](N(C)C(=O)c2ncc(-c3ccc4c(ccn4C)c3)cn2)C1` next.
A. < 300 nM

Q. Try `CCC(=O)N[C@H]1CC[C@@H](N(C)C(=O)c2ccc(-c3ccc4[nH]c(=O)[nH]c4c3)cc2)C1` next.
A. < 300 nM

Q. Try `CN(C(=O)c1ccc(-c2nc3ccccc3o2)cc1)[C@@H]1CC[C@H](NC(=O)c2ccccc2)C1` next.
A. 300 to 3000 nM

Q. Try `CCC(=O)N[C@H]1CC[C@@H](N(C)C(=O)c2ccc(-c3ccc(F)c(Cl)c3)cc2)C1` next.
A. < 300 nM

Q. Try `CN(C(=O)c1ccc(-c2nc3ccc(Cl)cc3o2)nn1)[C@@H]1CC[C@H](NC(=O)[C@@H]2CCCO2)C1` next.
A. 300 to 3000 nM

Q. Try `CCC(=O)N[C@H]1CC[C@@H](N(C)C(=O)c2ccc(-c3ccc(OC)cc3F)cc2)C1` next.
A. < 300 nM

Q. Try `CCC(=O)N[C@H]1CC[C@@H](N(C)C(=O)c2ccc(-c3ccc4[nH]ncc4c3C)c(C)c2)C1` next.
A. < 300 nM
